Listing: pIC50 of selected compounds
# TEST TARGET: Protein deacetylase HDAC6 (Homo sapiens, UniProt Q9UBN7)
# Sequence (Q9UBN7 whole entry): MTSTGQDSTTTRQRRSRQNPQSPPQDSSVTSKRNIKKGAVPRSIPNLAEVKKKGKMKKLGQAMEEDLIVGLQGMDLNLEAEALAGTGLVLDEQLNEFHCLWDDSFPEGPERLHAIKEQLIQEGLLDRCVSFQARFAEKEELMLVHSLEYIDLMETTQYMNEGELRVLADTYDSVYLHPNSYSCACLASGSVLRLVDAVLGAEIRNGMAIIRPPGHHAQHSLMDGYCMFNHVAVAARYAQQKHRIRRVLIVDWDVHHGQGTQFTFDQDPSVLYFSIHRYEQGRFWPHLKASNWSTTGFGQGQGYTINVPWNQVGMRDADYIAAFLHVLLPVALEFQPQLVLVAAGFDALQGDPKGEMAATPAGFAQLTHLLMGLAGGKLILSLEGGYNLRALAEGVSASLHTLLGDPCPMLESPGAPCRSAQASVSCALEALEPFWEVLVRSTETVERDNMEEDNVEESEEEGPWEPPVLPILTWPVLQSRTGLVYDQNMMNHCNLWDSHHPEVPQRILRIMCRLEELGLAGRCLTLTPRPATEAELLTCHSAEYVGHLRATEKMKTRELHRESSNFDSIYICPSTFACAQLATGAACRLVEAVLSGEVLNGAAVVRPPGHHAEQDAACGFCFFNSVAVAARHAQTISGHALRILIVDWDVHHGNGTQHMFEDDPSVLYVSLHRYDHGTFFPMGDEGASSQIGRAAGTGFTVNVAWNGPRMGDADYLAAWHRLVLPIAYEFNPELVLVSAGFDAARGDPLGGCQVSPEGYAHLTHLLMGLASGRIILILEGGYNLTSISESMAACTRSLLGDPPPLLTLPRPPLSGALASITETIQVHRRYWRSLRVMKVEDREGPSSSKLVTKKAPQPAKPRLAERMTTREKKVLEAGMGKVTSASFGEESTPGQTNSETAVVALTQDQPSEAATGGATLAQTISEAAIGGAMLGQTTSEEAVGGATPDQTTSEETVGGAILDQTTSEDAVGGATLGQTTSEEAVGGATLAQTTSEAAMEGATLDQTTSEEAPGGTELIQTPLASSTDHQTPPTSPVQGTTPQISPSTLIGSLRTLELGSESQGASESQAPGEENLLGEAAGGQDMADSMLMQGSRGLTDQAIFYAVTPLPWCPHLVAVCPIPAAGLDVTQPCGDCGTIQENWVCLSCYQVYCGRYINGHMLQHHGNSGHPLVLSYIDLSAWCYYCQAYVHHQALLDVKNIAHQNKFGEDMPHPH
# ASSAY COMMENT: Inhibition of human recombinant HDAC6 using fluorogenic HDAC substrate by fluorescence assay
pIC50: −log10 of the molar value.

| COMPOUND STRUCTURE | pIC50 |
| --- | --- |
| Cc1ccccc1/C=C/C(=O)Nc1ccc(C(=O)NS(=O)(=O)c2ccc(NCCCCCCC(=O)NO)c([N+](=O)[O-])c2)c(Oc2ccccc2)c1 | 8.52 |
| O=C(COc1ccc2c(c1)OC1(CCN(Cc3cc(Cl)cc(Cl)c3)CC1)CC2=O)NO | 7.10 |
| O=C(COc1ccc2c(c1)OC1(CCN(Cc3cc(F)cc(F)c3)CC1)CC2=O)NO | 7.10 |
| O=C(Cc1ccc(C(=O)NO)cc1)Nc1ccc2ncnc(Nc3ccc(Br)c(F)c3)c2c1 | 7.82 |
| CN(c1ccccc1)c1ncc(NC(=O)CS)cn1 | 7.14 |
